Reference for the values: patent US9845319B2

- test-system: full-length human RORγt (Homo sapiens)
- Construct: expressed in transfected cells; host or cells: HEK293T, transiently transfected with pCMV-BD-ROR
- test-details: RORγt (full-length human) Reporter Assay, Conditions A
- Format: cell-based
- study-conditions: read-out: RORγt (FL) Reporter Assay A, % inhibition (* at 2 μM); 2 μM compound concentration (footnote *)
parameter-measured: inhibition at 2 µM (%)

>  <chem-smiles>
C[C@H]1CCCCN1C(=O)c1nc(-c2noc(CC(C)(C)C(=O)O)n2)sc1-c1ccc(C(O)(C(F)(F)F)C(F)(F)F)c(Cl)c1Cl

>  <inhibition at 2 µM (%)>
101

$$$$
>  <chem-smiles>
C[C@H](NS(=O)(=O)c1ccc(-c2sc(-c3nnc(C(C)(C)O)[nH]3)nc2C(=O)N2CCC(F)(F)CC2)c(Cl)c1Cl)C(F)(F)F

>  <inhibition at 2 µM (%)>
104

$$$$
>  <chem-smiles>
C[C@H](NS(=O)(=O)c1ccc(-c2sc(-c3cc(C(C)(C)O)on3)nc2C(=O)N2CCC(F)CC2)c(Cl)c1Cl)C(F)(F)F

>  <inhibition at 2 µM (%)>
101

$$$$
>  <chem-smiles>
CC[C@H](NS(=O)(=O)c1ccc(-c2sc(-c3nnc(C(C)(C)O)o3)nc2C(=O)N(CC)CC)c(Cl)c1F)C(F)(F)F

>  <inhibition at 2 µM (%)>
102

$$$$
>  <chem-smiles>
CC[C@H](NS(=O)(=O)c1ccc(-c2sc(-c3nnc(C(C)(C)O)o3)nc2C(=O)N(CC)CC)c(Cl)c1Cl)C(F)(F)F

>  <inhibition at 2 µM (%)>
105

$$$$
>  <chem-smiles>
C[C@H](NS(=O)(=O)c1ccc(-c2sc(-c3cc(C(C)(C)O)on3)nc2C(=O)N2CCC(F)(F)CC2)c(Cl)c1Cl)C(F)(F)F

>  <inhibition at 2 µM (%)>
105

$$$$

====

- test-system: full-length human RORγt (Homo sapiens, UniProt P51449)
- Construct: expressed in transfected cells; host or cells: HEK293T, transiently transfected with pCMV-BD-ROR
- Sequence (P51449 1-497 isoform P51449-2): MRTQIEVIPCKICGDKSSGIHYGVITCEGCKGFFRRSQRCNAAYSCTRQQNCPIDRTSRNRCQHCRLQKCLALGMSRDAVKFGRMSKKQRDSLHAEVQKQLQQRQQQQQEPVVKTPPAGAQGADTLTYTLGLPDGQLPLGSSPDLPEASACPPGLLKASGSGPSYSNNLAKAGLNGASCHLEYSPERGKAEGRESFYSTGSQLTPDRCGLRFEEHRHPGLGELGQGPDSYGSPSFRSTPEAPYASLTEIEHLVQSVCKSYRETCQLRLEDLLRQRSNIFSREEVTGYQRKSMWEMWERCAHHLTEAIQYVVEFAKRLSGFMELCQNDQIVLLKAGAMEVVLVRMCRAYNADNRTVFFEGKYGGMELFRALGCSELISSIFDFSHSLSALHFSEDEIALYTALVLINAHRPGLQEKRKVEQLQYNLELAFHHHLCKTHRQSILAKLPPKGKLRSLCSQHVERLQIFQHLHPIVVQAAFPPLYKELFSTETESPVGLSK
- test-details: RORγt (full-length human) Reporter Assay, Conditions A
- Assay type: cell-based
- study-conditions: HEK293T cells, GAL4-DBD-RORγt, luciferase; read-out: RORγt (FL) Reporter Assay A, IC50
- Procedure: After overnight (16 to 20 hours) incubation, media were removed and cells were lysed with 20 μL 1× Passive Lysis Buffer (Promega) for 10-15 minutes. Luminescence was measured using a BMG LUMIstar OPTIMA plate reader, after addition of 75 μL/well firefly luciferase buffer, followed by 75 μL/well Renilla luciferase buffer. […] IC50s were generated by plotting final Renilla normalized data against compound concentration and percent inhibition was calculated against DMSO control.
parameter-measured: IC50 (nM)

>  <compound>
CCCN(CC)C(=O)c1nc(-c2nnc(C(C)(C)O)o2)sc1-c1ccc(S(=O)(=O)N[C@@H](C)C(F)(F)F)c(Cl)c1Cl

>  <IC50 (nM)>
30

$$$$
>  <compound>
CC(C)(O)c1nnc(-c2nc(C(=O)N3CCC(F)(F)CC3)c(-c3ccc(C(O)C4(C(F)(F)F)CC4)c(Cl)c3Cl)s2)o1 (stereo not drawn)

>  <IC50 (nM)>
320

$$$$
>  <compound>
C[C@H]1CCCCN1C(=O)c1nc(-c2nnc(CC(C)(C)C(=O)O)o2)sc1-c1ccc(C(O)(C(F)(F)F)C(F)(F)F)c(Cl)c1Cl

>  <IC50 (nM)>
230

$$$$

(a) Cc1c(S(=O)(=O)N[C@@H](C)C(F)(F)F)ccc(-c2sc(-c3nnc(C(C)(C)O)o3)nc2C(=O)N2CCC(F)(F)CC2)c1Cl
(b) C[C@H](NS(=O)(=O)c1ccc(-c2sc(-c3nnc(C4(C(F)(F)F)CC4)o3)nc2C(=O)N2CCC(F)(F)CC2)c(Cl)c1Cl)C(F)(F)F
(c) Cc1c(S(=O)(=O)N[C@@H](C)C(F)(F)F)ccc(-c2sc(-c3nnc(C(C)(C)O)o3)nc2C(=O)N2CCC(F)(F)CC2)c1F
(d) C[C@H](NS(=O)(=O)c1ccc(-c2sc(-c3noc(C(C)(C)O)n3)nc2C(=O)N2CCC(F)(F)CC2)c(C(F)F)c1F)C(F)(F)F
(e) C[C@H](NC(=O)c1cc(-c2sc(-c3nnc(C(C)(C)O)o3)nc2C(=O)N2CCC(F)CC2)cc(C2(C)CC2)c1)C(F)(F)F
Order the records, beginning with the lowest IC50 and ending with the highest. Rank the items, then write their labels in that order.
b, a, d, c, e

====

- test-system: full-length human RORγt (Homo sapiens)
- Construct: expressed in transfected cells; host or cells: HEK293T, transiently transfected with pCMV-BD-ROR
- Sequence (P51449 1-497 isoform P51449-2): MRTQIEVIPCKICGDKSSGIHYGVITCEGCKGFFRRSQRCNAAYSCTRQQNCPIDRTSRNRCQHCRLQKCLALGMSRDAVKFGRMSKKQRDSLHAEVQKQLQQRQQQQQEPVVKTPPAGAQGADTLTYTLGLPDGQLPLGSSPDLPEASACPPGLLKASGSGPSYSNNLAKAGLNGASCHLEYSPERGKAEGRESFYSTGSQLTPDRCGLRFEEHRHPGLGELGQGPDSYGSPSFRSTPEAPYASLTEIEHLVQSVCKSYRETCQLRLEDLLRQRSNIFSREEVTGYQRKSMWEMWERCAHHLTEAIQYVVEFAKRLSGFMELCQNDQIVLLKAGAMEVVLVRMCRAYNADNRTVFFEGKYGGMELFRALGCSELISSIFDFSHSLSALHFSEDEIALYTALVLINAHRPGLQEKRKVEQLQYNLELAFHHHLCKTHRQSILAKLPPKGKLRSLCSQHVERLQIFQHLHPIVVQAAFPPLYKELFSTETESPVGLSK
- test-details: RORγt (full-length human) Reporter Assay, Conditions A
- Assay type: cell-based
- study-conditions: HEK293T cells, GAL4-DBD-RORγt, luciferase; read-out: RORγt (FL) Reporter Assay A, IC50
parameter-measured: IC50 (nM)

>  <compound>
C[C@H](NS(=O)(=O)c1ccc(-c2sc(-c3nnc(C(C)(C)O)o3)nc2C(=O)N2CC(F)C[C@@H]2C)c(C(F)F)c1F)C(F)(F)F (stereo partly drawn)

>  <measured>
410

$$$$
>  <compound>
C[C@H](NS(=O)(=O)c1ccc(-c2sc(-c3nnco3)nc2C(=O)N2CCC(F)(F)CC2)c(Cl)c1Cl)C(F)(F)F

>  <measured>
52

$$$$
>  <compound>
CC(C)(O)c1nnc(-c2nc(C(=O)N3CCC(F)(F)CC3)c(-c3ccc(S(=O)(=O)NC4(C(F)F)CC4)c(F)c3Cl)s2)o1

>  <measured>
100

$$$$

(1) CCN(CC)C(=O)c1nc(-c2nnc(C)o2)sc1-c1ccc(S(=O)(=O)N[C@@H](C)C(F)(F)F)c(Cl)c1Cl
(2) C[C@H](NS(=O)(=O)c1ccc(-c2sc(-c3nnc(C(C)(C)O)o3)nc2C(=O)N2CCC(F)(F)CC2)c(Cl)c1F)C(F)(F)F
(3) CCN(CC)C(=O)c1nc(-c2cccc(C(C)(C)O)n2)sc1-c1ccc(S(=O)(=O)N[C@@H](C)C(F)(F)F)c(Cl)c1Cl
Order the records, beginning with the lowest IC50 and ending with the highest. Rank the items, then write their labels in that order.
3, 2, 1

====

- test-system: full-length human RORγt (Homo sapiens, UniProt P51449)
- Construct: expressed in transfected cells; host or cells: HEK293T, transiently transfected with pCMV-BD-ROR
- test-details: RORγt (full-length human) Reporter Assay, Conditions A
- Type: cell-based
- study-conditions: read-out: RORγt (FL) Reporter Assay A, % inhibition (* at 2 μM); 2 μM compound concentration (footnote *)
parameter-measured: inhibition at 2 µM (%)

For orientation, consider the following solved cases.
>  <chem-smiles>
CC1CCN(C(=O)c2nc(-c3nnc(C(C)(C)O)o3)sc2-c2ccc(S(=O)(=O)N[C@@H](C)C(F)(F)F)c3ccccc23)CC1

>  <unit-spec>
%

>  <inhibition at 2 µM>
103

$$$$
>  <chem-smiles>
CC(C)(O)c1nnc(-c2nc(C(=O)N3CCC(F)(F)CC3)c(-c3ccc(CC(O)(C(F)(F)F)C(F)(F)F)c(Cl)c3Cl)s2)o1

>  <unit-spec>
%

>  <inhibition at 2 µM>
104

$$$$
>  <chem-smiles>
CCN(CC)C(=O)c1nc(-c2nncn2CC(C)(C)O)sc1-c1ccc(C(O)(C(F)(F)F)C(F)(F)F)c(Cl)c1Cl

>  <unit-spec>
%

>  <inhibition at 2 µM>
99

$$$$
>  <chem-smiles>
C[C@H](NS(=O)(=O)c1ccc(-c2sc(-c3cnn[nH]3)nc2C(=O)N2CCCC[C@@H]2C)c(Cl)c1Cl)C(F)(F)F

>  <unit-spec>
%

>  <inhibition at 2 µM>
100

$$$$

(I) C[C@H]1CCCN1C(=O)c1nc(-c2nnc(C(C)(C)O)o2)sc1-c1ccc(C(O)(C(F)(F)F)C(F)(F)F)cc1C(F)(F)F
(II) C[C@H](NS(=O)(=O)c1ccc(-c2sc(-c3noc(=O)[nH]3)nc2C(=O)N2CCC(F)CC2)c(Cl)c1Cl)C(F)(F)F
Smaller inhibition at 2 µM value, I vs II ? Reply with the label of the item you choose.
II
(II: -25%, I: 102%)
